molecular target: L858R/T790M/C797S EGFR (Homo sapiens, UniProt P00533, C797S/L858R/T790M); construct: expressed in transfected cells; host or cells: H1975 clone #25 (lentiviral over-expression, endogenous EGFR knocked out by sgRNA); experiment: EGFR degradation HTRF assay in H1975-clone #25 (LTC) cells; format: cell-based; details: NCI-H1975, H1975 # 25-LTC (L858R/T790M/C797S), 16h treatment, maximum percentage of degradation
Sequence (P00533 25-1210 T790M/C797S/L858R): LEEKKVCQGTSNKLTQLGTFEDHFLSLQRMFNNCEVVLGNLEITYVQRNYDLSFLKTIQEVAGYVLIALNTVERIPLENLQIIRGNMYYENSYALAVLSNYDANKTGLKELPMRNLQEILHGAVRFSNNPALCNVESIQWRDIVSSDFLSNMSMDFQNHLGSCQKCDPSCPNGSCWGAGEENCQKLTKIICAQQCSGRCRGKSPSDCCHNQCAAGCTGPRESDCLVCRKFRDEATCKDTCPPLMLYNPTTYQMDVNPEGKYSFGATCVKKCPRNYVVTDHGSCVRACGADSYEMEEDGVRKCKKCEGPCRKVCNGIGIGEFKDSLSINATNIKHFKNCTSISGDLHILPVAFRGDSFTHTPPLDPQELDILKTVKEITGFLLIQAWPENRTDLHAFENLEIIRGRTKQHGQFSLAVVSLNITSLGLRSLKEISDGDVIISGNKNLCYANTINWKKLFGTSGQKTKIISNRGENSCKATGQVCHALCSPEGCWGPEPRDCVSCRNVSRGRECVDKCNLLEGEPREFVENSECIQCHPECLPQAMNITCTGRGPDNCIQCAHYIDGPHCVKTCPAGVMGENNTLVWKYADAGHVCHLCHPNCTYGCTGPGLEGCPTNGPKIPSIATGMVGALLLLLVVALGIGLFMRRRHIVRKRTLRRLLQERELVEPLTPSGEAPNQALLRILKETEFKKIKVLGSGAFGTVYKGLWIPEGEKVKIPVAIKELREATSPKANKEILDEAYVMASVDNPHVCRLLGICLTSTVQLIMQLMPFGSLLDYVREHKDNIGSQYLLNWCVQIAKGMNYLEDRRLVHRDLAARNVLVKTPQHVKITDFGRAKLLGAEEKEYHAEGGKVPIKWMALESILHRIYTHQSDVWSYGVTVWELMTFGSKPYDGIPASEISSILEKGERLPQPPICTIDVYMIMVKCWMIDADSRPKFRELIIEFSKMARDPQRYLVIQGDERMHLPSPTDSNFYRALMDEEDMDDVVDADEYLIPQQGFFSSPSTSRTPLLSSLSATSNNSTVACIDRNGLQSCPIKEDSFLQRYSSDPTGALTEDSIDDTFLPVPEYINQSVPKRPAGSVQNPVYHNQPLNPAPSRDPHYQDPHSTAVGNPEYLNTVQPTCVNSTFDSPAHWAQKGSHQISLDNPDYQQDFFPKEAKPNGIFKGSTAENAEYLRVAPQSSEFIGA
readout-label: Dmax

The molecule Cc1cc2cc(n1)-c1cnn(C)c1OCCC[C@@H](C)CN1/C(=N/C2=O)Nc2ccc(N3CCC(N(C)C4CCN(c5cc(F)c([C@H]6CCC(=O)NC6=O)c(F)c5)CC4)CC3)cc21 [Example 394] showed Dmax equal to 74.1%

Documented Dmax of Cc1cc2cc(n1)-c1cnn(C)c1OCCC[C@@H](C)CN1/C(=N/C2=O)Nc2ccc(N3CCC(C(=O)N4CC(Oc5cc(F)c([C@H]6CCC(=O)NC6=O)c(F)c5)C4)CC3)cc21 [Example 403] : 87.5%

Input Cc1cc2cc(n1)-c1cnn(C)c1OCCC[C@@H](C)CN1/C(=N/C2=O)Nc2ccc(N3C[C@@H](C)N(C4CCN(c5cc(F)c([C@H]6CCC(=O)NC6=O)c(F)c5)CC4)C[C@H]3C)cc21 [Example 398] . Output Dmax: 90.3%

Reported Dmax ( CCN(CCN1CCN(c2cc(F)c([C@H]3CCC(=O)NC3=O)c(F)c2)CC1)C(=O)c1ccc2c(c1)N1C[C@H](C)CCCOc3c(cnn3C)-c3cc(cc(C)n3)C(=O)/N=C/1N2 [Example 281] ) = 90.4%

Briefly, Dmax measured for Cc1cc2cc(n1)-c1cnn(C)c1OCCC[C@@H](C)CN1/C(=N/C2=O)Nc2ccc(C(=O)N(C3CC3)C3CCN(CCc4cc(F)c([C@H]5CCC(=O)NC5=O)c(F)c4)CC3)cc21 [Example 239] : 87.9%

Documented Dmax of Cc1cc2cc(n1)-c1cnn(C)c1OCCC[C@@H](C)CN1/C(=N/C2=O)Nc2cc(F)c(C3CCN(C(=O)[C@@H]4CCN(c5cc(F)c(C6CCC(=O)NC6=O)c(F)c5)C4)CC3)cc21 (stereo partly shown) [Example 329] : 78.7%

Dmax reported for this molecule Cc1cc2cc(n1)-c1cnn(C)c1OCCC[C@@H](C)CN1/C(=N/C2=O)Nc2ccc(N3CCN(CCC4CCN(c5cc(F)c([C@H]6CCC(=O)NC6=O)c(F)c5)CC4)CC3=O)cc21 [Example 437] : 91%

Record Cc1cc2cc(n1)-c1cnn(C)c1OCCC[C@@H](C)CN1/C(=N/C2=O)Nc2ccc(N3CCC(N4CCN(c5cc(F)c([C@H]6CCC(=O)NC6=O)c(F)c5)CC4)CC3)cc21 [Example 387] . Reported Dmax: 87.2%

Looking up Cc1cc2cc(n1)-c1cnn(C)c1OCCC[C@@H](C)CN1/C(=N/C2=O)Nc2ccc(CN(C)[C@@H]3CCCN(C(=O)[C@@H]4CCN(c5cc(F)c([C@H]6CCC(=O)NC6=O)c(F)c5)C4)C3)cc21 [Example 318] , I found its Dmax recorded as 76.4%

The recorded Dmax for Cc1cc2cc(n1)-c1cnn(C)c1OCCC[C@@H](C)CN1/C(=N/C2=O)Nc2ccc(C(=O)N(C)C[C@@H]3CCN(CCc4cc(F)c([C@H]5CCC(=O)NC5=O)c(F)c4)CC3(F)F)cc21 [Example 273] is 88.8%

* * *

Provide the reported Dmax of each item.
molecular target: L858R/T790M/C797S EGFR (Homo sapiens, UniProt P00533, C797S/L858R/T790M); construct: expressed in transfected cells; host or cells: H1975 clone #25 (lentiviral over-expression, endogenous EGFR knocked out by sgRNA); assay: EGFR degradation HTRF assay in H1975-clone #25 (LTC) cells; format: cell-based; conditions: NCI-H1975, H1975 # 25-LTC (L858R/T790M/C797S), 16h treatment, maximum percentage of degradation
The reply should be a number in %, with the unit left off.

The recorded Dmax for entry Cc1cc2cc(n1)-c1cnn(C)c1OCCC[C@@H](C)CN1/C(=N/C2=O)Nc2ccc(N3CCN([C@H]4CCN(c5cc(F)c([C@H]6CCC(=O)NC6=O)c(F)c5)C[C@@H]4F)CC3)cc21 (single isomer, unassigned) equals 89.8

Dmax for Cc1cc2cc(n1)-c1cnn(C)c1OCCC[C@@H](C)CN1/C(=N/C2=O)Nc2ccc(N3CCN(C4CCN(c5cc(F)c([C@H]6CCC(=O)NC6=O)c(F)c5)CC4)[C@@H](CO)C3)cc21 is 87.5

* * *

biological target: L858R/T790M/C797S EGFR (Homo sapiens, UniProt P00533, C797S/L858R/T790M); construct: expressed in transfected cells; host or cells: H1975 clone #25 (lentiviral over-expression, endogenous EGFR knocked out by sgRNA); assay: EGFR degradation HTRF assay in H1975-clone #25 (LTC) cells; format: cell-based; conditions: NCI-H1975, H1975 # 25-LTC (L858R/T790M/C797S), 16h treatment, maximum percentage of degradation
readout-label: Dmax

The recorded Dmax for Cc1cc2cc(n1)-c1cnn(C)c1OCCC[C@@H](C)CN1/C(=N/C2=O)Nc2ccc(CN3CCN(C(=O)[C@@H]4CCN(c5cc(F)c([C@H]6CCC(=O)NC6=O)c(F)c5)C4)CC3=O)cc21 is 86%

# Dmax of Cc1cc2cc(n1)-c1cnn(C)c1OCCC[C@@H](C)CN1/C(=N/C2=O)Nc2ccc(CN3CCN(CC4CN(c5cc(F)c([C@H]6CCC(=O)NC6=O)c(F)c5)C4)CC3)c(C)c21 = 78.7%

The compound identified as Cc1cc2cc(n1)-c1cnn(C)c1OCCC[C@@H](C)CN1/C(=N/C2=O)Nc2ccc(CN3CC4CCC(C3)N4C(=O)[C@@H]3CCN(c4cc(F)c([C@H]5CCC(=O)NC5=O)c(F)c4)C3)cc21 registered its Dmax at 82.5%

* * *

Assignment: determine reported DC50 for the given compounds.
target: L858R/T790M/C797S EGFR (Homo sapiens, UniProt P00533, C797S/L858R/T790M); construct: expressed in transfected cells; host or cells: H1975 clone #25 (lentiviral over-expression, endogenous EGFR knocked out by sgRNA); assay: EGFR degradation HTRF assay in H1975-clone #25 (LTC) cells; assay type: cell-based; conditions: H1975 # 25-LTC (L858R/T790M/C797S), 16h treatment, HTRF
Number first, unit second.

L858R/T790M/C797S EGFR (Homo sapiens, UniProt P00533, C797S/L858R/T790M) DC50 of Cc1cc2cc(n1)-c1cnn(C)c1OCCC[C@@H](C)CN1/C(=N/C2=O)Nc2ccc(N3CCN(C4CCN(c5ccc6c(c5)CN([C@H]5CCC(=O)NC5=O)C6=O)CC4)CC3)cc21 is 0.622 nM

Log: L858R/T790M/C797S EGFR (Homo sapiens, UniProt P00533, C797S/L858R/T790M), compound Cc1cc2cc(n1)-c1cnn(C)c1OCC[C@H]1C[C@@H]1CN1/C(=N/C2=O)Nc2ccc(N3CCN(C4CCN(c5cc(F)c([C@H]6CCC(=O)NC6=O)c(F)c5)CC4)CC3)cc21 , DC50 = 1.56 nM

The compound Cc1cc2cc(n1)-c1cnn(C)c1OCCC[C@@H](C)CN1/C(=N/C2=O)Nc2ccc(C(=O)N(C)C3CN(CCc4cc(F)c([C@H]5CCC(=O)NC5=O)c(F)c4)C3)cc21 , tested on L858R/T790M/C797S EGFR (Homo sapiens, UniProt P00533, C797S/L858R/T790M), showed DC50 of 0.702 nM

* * *

target: L858R/T790M/C797S EGFR (Homo sapiens, UniProt P00533, C797S/L858R/T790M); construct: expressed in transfected cells; host or cells: H1975 clone #25 (lentiviral over-expression, endogenous EGFR knocked out by sgRNA); experiment: EGFR degradation HTRF assay in H1975-clone #25 (LTC) cells; type: cell-based; conditions: H1975 # 25-LTC (L858R/T790M/C797S), 16h treatment, HTRF
readout-label: DC50

What the record says about Cc1cc2cc(n1)-c1cnn(C)c1OCCC[C@@H](C)CN1/C(=N/C2=O)Nc2ccc(CN3CCN(C(=O)[C@@H]4CCN(c5ccc(F)c6c5n(C)c(=O)n6C5CCC(=O)NC5=O)C4)CC3)cc21 (some centres unmarked) : DC50 is 0.852 nM

DC50 reading for Cc1cc2cc(n1)-c1cnn(C)c1OCCC[C@@H](C)CN1/C(=N/C2=O)Nc2ccc(CN3CC4(C3)CN(C(=O)[C@@H]3CCN(c5cc(F)c([C@H]6CCC(=O)NC6=O)c(F)c5)C3)C4)cc21 : 0.5 nM

Measured DC50 of Cc1cc2cc(n1)-c1cnn(C)c1OCCC[C@@H](C)CN1/C(=N/C2=O)Nc2cc(F)c(C3CCN(C(=O)[C@@H]4CCN(c5cc(F)c(C6CCC(=O)NC6=O)c(F)c5)C4)CC3)cc21 (some centres unmarked) : 2.97 nM

Form field DC50, entry Cc1cc2cc(n1)-c1cnn(C)c1OCCC[C@@H](C)CN1/C(=N/C2=O)Nc2ccc(C(=O)N(C)C3CCN(CCc4cccc5c4oc(=O)n5C4CCC(=O)NC4=O)CC3)cc21 (some centres unmarked) : 1.37 nM

Given item Cc1cc2cc(n1)-c1cnn(C)c1OCCC[C@@H](C)CN1/C(=N/C2=O)Nc2ccc(N3C[C@H](C)N(C4CCN(c5cc(F)c([C@H]6CCC(=O)NC6=O)c(F)c5)CC4)C[C@H]3C)cc21 , the value recorded as its DC50 is 3.35 nM
